B1: Histone H1t, residues 44 to 112; numbered along this chain, P22492 (parent)
chain: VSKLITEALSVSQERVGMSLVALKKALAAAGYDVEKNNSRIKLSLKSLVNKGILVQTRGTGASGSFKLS

- Variants of: B1
- protocol: abundance fitness (aPCA) (normalised: wild type 0, dead -1); higher = more abundant; growth selection in yeast, the domain comes from the species named
- run parameters: Homo sapiens
So basically: abundance fitness at -0.09 or higher? That is 1.0. Lower than -0.09? That is 0.0.

Some solved entries appear below for comparison.
| variant string | group |
| --- | --- |
| V49R | 0.0 |
| D33H | 1.0 |
| D33T | 1.0 |
| A62E | 1.0 |

Can K67D be said to have abundance fitness at or above -0.09?
0.0

Can S69V be said to have abundance fitness at or above -0.09?
0.0

Can Y32I be said to have abundance fitness at or above -0.09?
1.0

Can N50H be said to have abundance fitness at or above -0.09?
0.0

Can K46E be said to have abundance fitness at or above -0.09?
1.0
